These data points were gathered from patent EP4534554A1.

- Tested Target: MAGE-A1 target antigen peptide … presented by HLA-A*02:01 on cells (human)
- Measurement Description: cell-based or functional assay
- Set-up: unit not given beside the values
Observed Property: EC50 Enhancement Factor

>>> endpoint_value("ht27M1365 (TCR, V domains shown) Valpha: GEDVEQSLFLSVREGDSSVINCTYTDSSSTYLYWYKQEPGAGLQLLTYIFSFTYMKQDQRLTVLLNKKDKHLSLRIADTQTGDSAIYFCAGSGGGTDKLIFGTGTRLQVFP Vbeta: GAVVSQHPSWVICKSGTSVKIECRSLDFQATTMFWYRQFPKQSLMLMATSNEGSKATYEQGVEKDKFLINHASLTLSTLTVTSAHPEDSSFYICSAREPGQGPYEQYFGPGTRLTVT")
165
>>> endpoint_value("ht27M1374 (TCR, V domains shown) Valpha: GEDVEQSLFLSVREGDSSVINCTYTDSTDILLYWYKQEPGAGLQLLTYIFSNMDMKQDQRLTVLLNKKDKHLSLRIADTQTGDSAIYFCAGSGGGTDKLIFGTGTRLQVFP Vbeta: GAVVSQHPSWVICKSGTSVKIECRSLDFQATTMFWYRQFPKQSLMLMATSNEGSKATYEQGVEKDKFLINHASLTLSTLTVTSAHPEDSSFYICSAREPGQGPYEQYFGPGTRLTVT")
153
>>> endpoint_value("ht27M1170 (TCR, V domains shown) Valpha: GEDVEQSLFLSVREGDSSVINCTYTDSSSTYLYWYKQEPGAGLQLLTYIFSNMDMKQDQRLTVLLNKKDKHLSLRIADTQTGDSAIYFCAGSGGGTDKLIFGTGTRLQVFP Vbeta: GAVVSQHPSWVICKSGTSVKIECRSLDFQATTMFWYRQFPKQSLMLMATSNEGSKATYEQGVEKDKFLINHASLTLSTLTVTSAHPEDSSFYICHAREPGQGPYEQYFGPGTRLTVT")
39
>>> endpoint_value("ht27M1243 (TCR, V domains shown) Valpha: GEDVEQSLFLSVREGDSSVINCTYTDSSLTYLYWYKQEPGAGLQLLTYIFSNMDMKQDQRLTVLLNKKDKHLSLRIADTQTGDSAIYFCAGSGGGTDKLIFGTGTRLQVFP Vbeta: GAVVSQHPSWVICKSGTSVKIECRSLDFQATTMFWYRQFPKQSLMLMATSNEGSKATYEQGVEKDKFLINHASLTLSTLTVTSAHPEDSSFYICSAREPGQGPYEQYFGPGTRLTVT")
56
>>> endpoint_value("ht27M1128 (TCR, V domains shown) Valpha: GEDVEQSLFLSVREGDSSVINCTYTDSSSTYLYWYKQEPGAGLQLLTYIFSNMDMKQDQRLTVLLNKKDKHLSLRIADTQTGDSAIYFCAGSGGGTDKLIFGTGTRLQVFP Vbeta: GAVVSQHPSWVICKSGTSVKIECRSLDFQATTMFWYRQFPKQSLMLMATSNEGSKATYEQGVEKDKFLINHASLTLSTLTVTSAHPEDSSFYICLAREPGQGPYEQYFGPGTRLTVT")
422
>>> endpoint_value("ht27M1009 (TCR, V domains shown) Valpha: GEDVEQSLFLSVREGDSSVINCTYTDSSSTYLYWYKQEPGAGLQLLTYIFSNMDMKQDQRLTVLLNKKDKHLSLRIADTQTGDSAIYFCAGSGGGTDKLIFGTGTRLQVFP Vbeta: GAVVSQHPSWVICKSGTSVKIECRSLDFQATTMFWYRQFPKQSLMLMATSDYQTCVTYEQGVEKDKFLINHASLTLSTLTVTSAHPEDSSFYICSAREPGQGPFEQYFGPGTRLTVT")
2720
>>> endpoint_value("ht27M1003 (TCR, V domains shown) Valpha: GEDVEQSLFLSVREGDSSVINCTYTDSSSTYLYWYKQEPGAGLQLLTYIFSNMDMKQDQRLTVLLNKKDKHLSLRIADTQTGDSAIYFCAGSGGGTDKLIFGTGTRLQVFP Vbeta: GAVVSQHPSWVICKSGTSVKIECRSLDFQATTMFWYRQFPKQSLMLMATSNEGSKATYEQGVEKDKFLINHASLTLSTLTVTSAHPEDSSFYICSAREPGSGPYEQYFGPGTRLTVT")
14
>>> endpoint_value("ht27M1012 (TCR, V domains shown) Valpha: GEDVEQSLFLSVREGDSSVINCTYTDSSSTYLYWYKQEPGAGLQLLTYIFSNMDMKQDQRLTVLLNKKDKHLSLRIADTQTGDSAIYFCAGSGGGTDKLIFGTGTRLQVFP Vbeta: GAVVSQHPSWVICKSGTSVKIECRSLDFQATTMFWYRQFPKQSLMLMATSNEGSKATYEQGVEKDKFLINHASLTLSTLTVTSAHPEDSSFYICSAREPGGGPFEQYFGPGTRLTVT")
637
>>> endpoint_value("ht27M1240 (TCR, V domains shown) Valpha: GEDVEQSLFLSVREGDSSVINCTYTDSSMTYLYWYKQEPGAGLQLLTYIFSNMDMKQDQRLTVLLNKKDKHLSLRIADTQTGDSAIYFCAGSGGGTDKLIFGTGTRLQVFP Vbeta: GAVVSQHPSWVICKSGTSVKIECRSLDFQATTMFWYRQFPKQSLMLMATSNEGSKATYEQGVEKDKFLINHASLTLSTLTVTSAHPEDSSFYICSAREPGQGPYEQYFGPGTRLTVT")
151
>>> endpoint_value("ht27M1018 (TCR, V domains shown) Valpha: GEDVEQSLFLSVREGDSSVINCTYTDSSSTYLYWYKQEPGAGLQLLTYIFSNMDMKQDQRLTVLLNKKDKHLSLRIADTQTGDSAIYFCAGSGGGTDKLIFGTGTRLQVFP Vbeta: GAVVSQHPSWVICKSGTSVKIECRSLDFQATTMFWYRQFPKQSLMLMATSDYQTCVTYEQGVEKDKFLINHASLTLSTLTVTSAHPEDSSFYICSAREPGGGPFEQYFGPGTRLTVT")
262
